- assay-explanation: NCI Yeast Anticancer Drug Screen. Data for the CLN2oe strain (AID 163);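 also: 0% = growth of vehicle-only control cultures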
- condition-notes: S. cerevisiae CLN2oe strain, at 100.0 µM, hits give high values
- Description: Growth inhibition of yeast strains with defined genetic alterations is measured as a screen for potential anti-cancer activity. Selected strains with alterations in DNA damage repair or cell cycle control were exposed to compounds and growth inhibition was measured relative to vehicle treated controls. The strain used in this assay is CLN2oe
The panel holds about 79,000 compounds, 15% with a hit somewhere; the sample as a whole holds those more often.
Label Y when growth inhibition is at or above 30%; anything below gets N.

For orientation, consider the following solved cases.
| compound | label-class |
| --- | --- |
| CC(=O)[C@]1(O)Cc2c(O)c3c(c(O)c2[C@@H](OC2CC(N)C(O)C(C)O2)C1)C(=O)c1c(OCc2ccccc2)cccc1C3=O (stereo not given in full) | Y |
| CCC(NC(C)c1ccccc1)C(=O)c1ccc(OCc2ccccc2)c(OCc2ccccc2)c1 (stereo not given) | N |

QUERY: Item "COC(=O)c1cccc(C)c1C(=O)c1c(C)cc(C)cc1C" with growth inhibition of 30% or above?
RESULT: Y

QUERY: Repeat for the following compound: "CC(C)(O)c1ccccc1C(c1ccccc1)c1ccccc1"
RESULT: N

QUERY: Repeat for the following compound: CCCCC(CC)C(=O)Oc1ccc(C(=O)c2ccccc2)c(O)c1 (stereo not given)
RESULT: Y

* * *

Quick list: growth inhibition per entry.
- assay-explanation: NCI Yeast Anticancer Drug Screen. Data for the rad50 strain (AID 155);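 also: 0% = growth of vehicle-only cultures of the same strain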
- condition-notes: S. cerevisiae rad50 strain growth inhibition; at 1.2 µM; hits give high values
Compounds without any hit were thinned out: in the full panel of roughly 79,000, 15% have a hit. The source made the active and inactive calls. No stated cut-off is given here; in the data, active means growth inhibition above about 70%; inactive means the rest.

QUERY: Which growth inhibition is listed for Cc1cc(C)c(N2C(=O)CC(Sc3ccccc3N)C2=O)c(C)c1 (configuration not stated) ?
RESULT: -34% (inactive)

QUERY: Repeat for the following compound: "COc1ccc(/C=C2\SC(=S)N(C=C3C(=O)NC(=S)NC3=O)C2=O)cc1OC"
RESULT: 3% (inactive)

QUERY: Repeat for the following compound: "COc1cc(N(C)C)ccc1/C=C\c1ccnc2ccccc12"
RESULT: -5% (inactive)

QUERY: Repeat for the following compound: "Cc1onc(-c2ccccc2Cl)c1C1=N/C(=C/c2cc(Cl)cc(Cl)c2O)C(=O)O1"
RESULT: -38% (inactive)

QUERY: Repeat for the following compound: "Clc1cc(-c2ccccc2)nc2ccccc12"
RESULT: 6% (inactive)

QUERY: Repeat for the following compound: "N#Cc1sc2c(c1OC(=O)c1ccco1)c(=O)n(-c1ccccc1)c(=S)n2-c1ccccc1"
RESULT: 0% (inactive)

* * *

- assay-explanation: NCI Yeast Anticancer Drug Screen. Data for the bub3 strain (AID 167)
- condition-notes: S. cerevisiae bub3 mutant strain, at 11.0 µM, hits give high values
- Procedure: Growth inhibition of yeast strains with defined genetic alterations is measured as a screen for potential anti-cancer activity. Selected strains with alterations in DNA damage repair or cell cycle control were exposed to compounds and growth inhibition was measured relative to vehicle treated controls. The strain used in this assay is bub3
The panel holds about 79,000 compounds, 15% with a hit somewhere; the sample as a whole holds those more often.
Quick list: growth inhibition per entry.
// note: answer is a bare numeric in %

| compound | growth inhibition / % |
| --- | --- |
| O=C1C(Cl)=C(Cl)C(Cl)(Cl)C(Cl)C1(Cl)Cl (configuration not stated) | 59 |
| CCOC(=O)Nc1ccc2c(c1)Cc1ccccc1-2 | 21 |
| COc1ccc2c(c1)[nH]c1c(/C=C/c3ccccc3)nccc12 | 27 |

QUERY: Which growth inhibition is listed for "CC(C)c1[nH]nc(C(N)=O)c1N=NN(C)C" ?
RESULT: -5

QUERY: Repeat for the following compound: CCN(CC)CC(O)C1CCC(c2ccccc2)CC1 (configuration not stated)
RESULT: 30

* * *

- assay-explanation: NCI Yeast Anticancer Drug Screen. Data for the mlh1 strain (AID 171);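 also: 0% = growth of vehicle-treated control cultures of the same strain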
- condition-notes: S. cerevisiae mlh1 strain growth inhibition; at 33.0 µM; hits give high values
Compounds without any hit were thinned out: in the full panel of roughly 79,000, 15% have a hit.
Label MET when growth inhibition is at or above 10%; anything below gets NOT MET.

QUERY: Item COc1ccc(N2C(=O)CC(Cl)C2=O)cc1 (configuration not stated) with growth inhibition of 10% or above?
RESULT: MET

QUERY: Repeat for the following molecule: CC(=O)[C@]1(O)Cc2c(O)c3c(c(O)c2[C@@H](OC2CC(N)C(O)C(C)O2)C1)C(=O)c1c(OCc2ccccc2)cccc1C3=O (some centres not stated)
RESULT: MET

QUERY: Repeat for the following molecule: "S=P(N1CC1)(N1CC1)N1CC1"
RESULT: NOT MET

QUERY: Repeat for the following molecule: "CC(=O)CC(=O)/C=C/c1cccs1"
RESULT: MET

* * *

- assay-explanation: NCI Yeast Anticancer Drug Screen. Data for the CLN2oe strain (AID 163);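 also: 0% = growth of vehicle-only control cultures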
- condition-notes: S. cerevisiae CLN2oe strain, at 1.2 µM, hits give high values
Compounds without any hit were thinned out: in the full panel of roughly 79,000, 15% have a hit.
quantity-name: growth inhibition (%)
// note: answer is a bare numeric in %

| molecule | meas-value |
| --- | --- |
| O=[N+]([O-])/C(C(Cl)=C(Cl)Cl)=C1/OCCS1 | 15 |

QUERY: Which growth inhibition is listed for O=C1OC2C(O)COC2(OCc2c[nH]c3ccccc23)C1O (stereo unspecified) (tested in a mixture with another compound) ?
RESULT: 1

QUERY: Repeat for the following molecule: "COc1ccc(N=Nc2ccc3oc(=O)c(C(=O)Nc4ccccc4)cc3c2)cc1"
RESULT: -12

QUERY: Repeat for the following molecule: Cc1ccc(S(=O)(=O)Nc2ccc3c(c2)C(O)c2ccccc2-3)cc1 (stereo unspecified)
RESULT: -7

QUERY: Repeat for the following molecule: "C/C(=N\NC(=S)NC1CCCC1)c1ccccn1"
RESULT: -6

QUERY: Repeat for the following molecule: Cc1cc(C)c(N2C(=O)CC(Sc3ccccc3N)C2=O)c(C)c1 (stereo unspecified)
RESULT: -16

QUERY: Repeat for the following molecule: "C=C1N(C)c2ccc(Cl)cc2C1(C)C"
RESULT: -16

QUERY: Repeat for the following molecule: CCOP1(=O)C=C(Sc2ccc([N+](=O)[O-])cc2[N+](=O)[O-])C(C)(C)O1 (stereo unspecified)
RESULT: 3

QUERY: Repeat for the following molecule: "OCCNCCOc1ccc(/C(=C(/Cl)c2ccccc2)c2ccccc2)cc1"
RESULT: -13

QUERY: Repeat for the following molecule: "CC[C@@]1(OC(=O)CN(C)C)C(=O)OCc2c1cc1n(c2=O)Cc2cc3c(N)cccc3nc2-1"
RESULT: -8

QUERY: Repeat for the following molecule: "O=C(/C=C\c1ccc([N+](=O)[O-])o1)Nc1ccc(Cl)cc1"
RESULT: -4

* * *

- assay-explanation: NCI Yeast Anticancer Drug Screen. Data for the rad50 strain (AID 155);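 also: 0% = growth of vehicle-only cultures of the same strain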
- condition-notes: S. cerevisiae rad50 strain growth inhibition; at 1.2 µM; hits give high values
About 79,000 compounds went through this panel and 15% of them were active in at least one assay; those are over-represented in the sample as a whole.
quantity-name: growth inhibition (%)
// note: answer is a bare numeric in %

Consider the following illustrative entries.
| compound | growth inhibition, % |
| --- | --- |
| CCOP1(=O)C=C(Sc2ccc([N+](=O)[O-])cc2[N+](=O)[O-])C(C)(C)O1 (configuration not stated) | 2 |
| OCCNCCOc1ccc(/C(=C(/Cl)c2ccccc2)c2ccccc2)cc1 | 12 |

Now turn to the next compound.
QUERY: Which growth inhibition is listed for "NC(N)=N/N=C/c1cc(Cl)cc(Cl)c1O" ?
RESULT: -15

* * *

- assay-explanation: NCI Yeast Anticancer Drug Screen. Data for the cln2 rad14 strain (AID 165);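 also: 0% = growth equal to vehicle treated cultures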
- condition-notes: S. cerevisiae cln2 rad14 strain, at 50.0 µM (retest, dose inferred, filed as 5.0), hits give high values
Compounds without any hit were thinned out: in the full panel of roughly 79,000, 15% have a hit.
quantity-name: growth inhibition (%)
// note: answer is a bare numeric in %

| smiles | quantity-name | meas-value |
| --- | --- | --- |
| CC[C@@]1(OC(=O)CN(C)C)C(=O)OCc2c1cc1n(c2=O)Cc2cc3c(N)cccc3nc2-1 | growth inhibition | 17 |

QUERY: Which growth inhibition is listed for "Cc1cc(Cl)nc2nc(Cl)c(N)cc12" ?
RESULT: 42

QUERY: Repeat for the following molecule: "COc1ccc(N2CN(C)CSC2=S)cc1"
RESULT: 59

QUERY: Repeat for the following molecule: "C=C(C)[C@@H]1CCc2c(O)c(O)c(=O)cc(C)c2C1"
RESULT: 93

QUERY: Repeat for the following molecule: "CCCCOC(=O)CSSCC(=O)OCCCC"
RESULT: 99

QUERY: Repeat for the following molecule: "CC(=O)N1C(=O)/C(=C\C(=O)c2ccc(Cl)cc2)c2ccccc21"
RESULT: 91
